experiment: Thermodynamic aqueous solubility; format: physicochemical; conditions: water, 22 °C, pH 9.16, water, thermodynamic from solid, ambient temperature (ca. 22° C.), 10 mg in 1 mL stirred 24 h (Form I) or 48 h (Form II); supernatant pH 9.16; HPLC
valueType: solubility

Note down solubility recorded for Cc1cc(C(=O)Nc2cc(Oc3ccc4nc(NC(=O)CCCN5CCC6(CC5)COC6)cn4n3)ccc2C)n(C)n1 [Crystalline Form I]
27.8 µg/mL
